Numbers sourced from BindingDB's records for patent US11566007.

Molecular target: GTPase KRas [G12C] (Homo sapiens, UniProt P01116, G12C)
Sequence (P01116 whole entry G12C): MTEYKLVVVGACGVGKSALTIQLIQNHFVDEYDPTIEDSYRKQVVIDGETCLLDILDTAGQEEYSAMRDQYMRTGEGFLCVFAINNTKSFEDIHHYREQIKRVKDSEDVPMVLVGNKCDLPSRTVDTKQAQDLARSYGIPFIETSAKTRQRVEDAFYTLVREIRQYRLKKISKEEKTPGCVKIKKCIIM
Assay: Biochemical Assay
ASSAY ENDPOINT: IC50

SMILES DATA	MEASURED
CCn1c(-c2cccnc2COC)c2c3cc(ccc31)-c1cc(O)cc(c1)C[C@H](NC(=O)[C@H](C(C)C)N(C)C(=O)[C@H]1CCN(C(=O)C#CCN3CCOCC3)C1)C(=O)N1CCC[C@H](N1)C(=O)OCC(C)(C)C2	< 10 nM

----------
In this section, each of the compounds is paired with its reported IC50.
Target: GTPase NRas [Q61R] (Homo sapiens, UniProt P01111, Q61R)
Sequence (P01111 whole entry Q61R): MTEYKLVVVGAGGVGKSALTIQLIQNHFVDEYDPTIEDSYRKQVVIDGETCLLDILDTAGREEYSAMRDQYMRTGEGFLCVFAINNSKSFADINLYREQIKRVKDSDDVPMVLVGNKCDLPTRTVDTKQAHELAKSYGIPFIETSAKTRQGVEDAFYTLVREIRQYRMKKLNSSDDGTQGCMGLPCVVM
Experiment: Biochemical Assay

COMPOUND	TARGET DESC	IC50
C=CC(=O)N1CC[C@H](C(=O)N(C)[C@H](C(=O)N[C@H]2Cc3cc(O)cc(c3)-c3ccc4c(c3)c(c(-c3cccnc3)n4CC)CC(C)(C)COC(=O)[C@@H]3CCCN(N3)C2=O)C(C)C)C1 [US11566007, Example A45]	GTPase NRas [Q61R] (Homo sapiens, UniProt P01111, Q61R)	> 10 µM
C=CC(=O)N1CC[C@H](C(=O)N(C)[C@H](C(=O)N[C@H]2Cc3cc(O)cc(c3)-c3ccc4c(c3)c(c(-c3ccccc3N3CCOCC3)n4CC)CC(C)(C)COC(=O)[C@@H]3CCCN(N3)C2=O)C(C)C)C1 [US11566007, Example A26]	GTPase NRas [Q61R] (Homo sapiens, UniProt P01111, Q61R)	> 10 µM
C=CC(=O)N1CC[C@H](C(=O)N(C)[C@H](C(=O)N[C@H]2Cc3cc(O)cc(c3)-c3ccc4c(c3)c(c(-c3c(F)cccc3CCOC)n4CC)CC(C)(C)COC(=O)[C@@H]3CCCN(N3)C2=O)C(C)C)C1 [US11566007, Example A25]	GTPase NRas [Q61R] (Homo sapiens, UniProt P01111, Q61R)	> 10 µM
